Taken from ChEMBL document CHEMBL1132288.

assay-system: Histamine H3 receptor (Rattus norvegicus) (UniProt Q9QYN8)
Sequence (Q9QYN8 whole entry): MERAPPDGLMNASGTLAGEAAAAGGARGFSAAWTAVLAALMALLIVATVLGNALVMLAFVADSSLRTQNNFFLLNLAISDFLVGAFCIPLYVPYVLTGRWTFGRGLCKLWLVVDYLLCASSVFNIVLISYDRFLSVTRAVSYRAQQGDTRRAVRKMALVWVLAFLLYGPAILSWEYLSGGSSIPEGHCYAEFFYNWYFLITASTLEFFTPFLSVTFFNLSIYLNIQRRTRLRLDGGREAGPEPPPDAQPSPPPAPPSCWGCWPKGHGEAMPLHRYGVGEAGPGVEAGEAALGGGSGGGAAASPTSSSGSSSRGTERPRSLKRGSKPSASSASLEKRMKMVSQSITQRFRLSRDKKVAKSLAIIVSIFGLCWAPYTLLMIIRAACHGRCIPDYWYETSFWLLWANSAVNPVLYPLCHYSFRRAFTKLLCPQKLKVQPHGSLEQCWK
assay-notes: Binding affinity for Histamine H3 receptor
parameter: pD2

molecule	result-value
C[C@H]1NCC[C@@H]1c1c[nH]cn1	7.1
NCCc1c[nH]cn1	7.2
CNCCc1cnc[nH]1	7.7
N=C(N)CCCc1c[nH]cn1	9
C[C@@H](N)Cc1c[nH]cn1	8.4
C[C@@H]1NCC[C@H]1c1c[nH]cn1	7.1
N[C@@H](Cc1ccccc1)C(=O)N[C@@H]1C[C@H]1c1c[nH]cn1	8.7
C[C@H](c1c[nH]cn1)[C@@H](C)N	8.5
c1nc(CC2CCNCC2)c[nH]1	8
CC(C)(C)CCC#C[C@@H]1C[C@H]1c1c[nH]cn1 [CIPRALISANT]	8.5
N=C(N)SCCc1c[nH]cn1	8.1
C[C@H](N)[C@@H](C)c1c[nH]cn1	6.5

====

// reported log10 Ki for each item listed
assay-system: Histamine H3 receptor (Rattus norvegicus)
Sequence (Q9QYN8 whole entry): as above
assay-notes: Binding affinity of compound against Histamine H3 receptor
parameter: log10 Ki (log10 of the value in nM)

compound	assay-system	result-value
N[C@@H]1C[C@H]1c1cnc[nH]1 [VUF-5296]	Histamine H3 receptor (Rattus norvegicus)	0.50
CC(C)(C)CCC#C[C@@H]1C[C@H]1c1c[nH]cn1 [CIPRALISANT]	Histamine H3 receptor (Rattus norvegicus)	-0.90
N[C@H]1C[C@@H]1c1c[nH]cn1 [VUF-5297]	Histamine H3 receptor (Rattus norvegicus)	1.40
N[C@@H](Cc1ccccc1)C(=O)NCCc1c[nH]cn1	Histamine H3 receptor (Rattus norvegicus)	2.00
N[C@H](/C=C\[C@@H]1C[C@H]1c1c[nH]cn1)CC1CCCCC1	Histamine H3 receptor (Rattus norvegicus)	2.00
N[C@@H](Cc1ccccc1)C(=O)N[C@H]1C[C@@H]1c1c[nH]cn1	Histamine H3 receptor (Rattus norvegicus)	1.30
N[C@H](/C=C/[C@@H]1C[C@H]1c1c[nH]cn1)CC1CCCCC1	Histamine H3 receptor (Rattus norvegicus)	-0.40
